// provenance: patent US20140024663A1

ASSAY DETAILS: Measurement of α-MT in mouse plasma by HPLC
Assay type: in vivo, Balb/c nude mice
RUN CONDITIONS: mice, two weeks of administration in drinking water (2 mg/ml)
METRIC NAME: plasma concentration of α-MT (µM)
Use µM as the unit, but write only the number.

Which plasma concentration of α-MT is listed for CC(N)(Cc1c[nH]c2ccccc12)C(=O)O (racemic) ?
8.5
